The reported measurements were obtained from patent US20010044445A1.

# melting point listing for each entry below

[[record]]
compound = "CCC(NC(=O)OCc1ccccc1)C(=O)Nc1ccc(-n2nc(C(F)(F)F)cc2C(F)(F)F)cc1 (stereo not shown) [Example 28]"
result_value = "158 to 160 °C"


-- ask What value of melting point has been recorded for this entry: O=C1CCC(C(=O)Nc2ccc(-n3nc(C(F)(F)F)cc3C(F)(F)F)cc2)O1 (stereo not shown) [Example 254]
-- reply 172 to 173 °C

-- ask What value of melting point has been recorded for this entry: O=C(Nc1ccc(-n2nc(C(F)(F)F)cc2C(F)(F)F)cc1)c1cc2cc(F)ccc2[nH]1 [Example 20]
-- reply 253 to 255 °C

-- ask What value of melting point has been recorded for this entry: COc1ccc(C(=O)Nc2ccc(-n3nc(C(F)(F)F)cc3C(F)(F)F)cc2)c(Cl)c1 [Example 215]
-- reply 140 to 143 °C

-- ask What value of melting point has been recorded for this entry: Cc1ccc([N+](=O)[O-])c(C(=O)Nc2ccc(-n3nc(C(F)(F)F)cc3C(F)(F)F)cc2)c1 [Example 237]
-- reply 188 to 189 °C

-- ask What value of melting point has been recorded for this entry: N#Cc1ccc(C(=O)Nc2cccc(-n3nc(C(F)(F)F)cc3C(F)(F)F)c2)cc1 [Example 238]
-- reply 133 to 134 °C

-- ask What value of melting point has been recorded for this entry: O=C(Nc1ccc(-n2nc(C(F)(F)F)cc2C(F)(F)F)cc1)c1ccc(F)cc1Cl [Example 206]
-- reply 155 to 157 °C

-- ask What value of melting point has been recorded for this entry: O=C(Nc1ccc(-n2nc(C(F)(F)F)cc2-c2cccs2)cc1)c1ccncc1F [Example 311]
-- reply 153 to 155 °C

-- ask What value of melting point has been recorded for this entry: O=C(Nc1ccc(-n2nc(C(F)(F)F)cc2C(F)(F)F)cc1)c1cccc(C(F)(F)F)c1 [Example 101]
-- reply 143 to 145 °C

-- ask What value of melting point has been recorded for this entry: O=C(Nc1ccc(-n2nc(C(F)(F)F)cc2C(F)(F)F)cc1)c1cccnc1Cl [Example 150]
-- reply 145 to 147 °C

-- ask What value of melting point has been recorded for this entry: O=C(Nc1ccc(-n2nc(C(F)(F)F)cc2C(F)(F)F)cc1)c1ccc(F)cc1 [Example 90]
-- reply 184 to 186 °C

-- ask What value of melting point has been recorded for this entry: O=C(Nc1ccc(-n2nc(C(F)(F)F)cc2C(F)(F)F)cc1)c1ccccc1O [Example 103]
-- reply 173 to 175 °C

-- ask What value of melting point has been recorded for this entry: Cc1ccsc1C(=O)Nc1ccc(-n2nc(C(F)(F)F)cc2C(F)(F)F)cc1 [Example 162]
-- reply 185 to 188 °C

-- ask What value of melting point has been recorded for this entry: O=C(Nc1ccc(-n2nc(C(F)(F)F)cc2C(F)(F)F)cc1)c1nc(Cl)ccc1Cl [Example 167]
-- reply 118 to 119 °C

-- ask What value of melting point has been recorded for this entry: O=C(Nc1ccc(-n2nc(C(F)(F)F)cc2C(F)(F)F)cc1)C1=CCCCC1 [Example 6]
-- reply 146 to 148 °C

----------
Tested on: Human peripheral blood mononuclear cells
Experiment: Human Concanavalin-A Proliferation Assay (Con HU Assay)
Assay type: cell-based
Conditions: Homo sapiens, PBMC, 72 h, concentration 10 μm (in parentheses in the cell); concanavalin-A stimulated human PBMC, 3 days; read-out: % Inhibition of proliferation (at concentrations of 1,10, or 100 μm)
metric name: inhibition at 10 µM (%)
Field format: number, assumed %, no unit text.

Here are 3 compounds together with their reported answers.
[[record]]
compound = "O=C(Nc1ccc(-n2nc(C(F)(F)F)cc2C(F)(F)F)cc1)c1cccc([N+](=O)[O-])c1Br"
unit_tag = "%"
result_value = 100

[[record]]
compound = "CC1CCCCC1C(=O)Nc1ccc(-n2nc(C(F)(F)F)cc2C(F)(F)F)cc1 (stereo not drawn)"
unit_tag = "%"
result_value = 100

[[record]]
compound = "Cn1cc(C(=O)Nc2ccc(-n3nc(C(F)(F)F)cc3C(F)(F)F)cc2)cn1"
unit_tag = "%"
result_value = 90


-- ask What value of inhibition at 10 µM has been recorded for this entry: "CS(=O)(=O)c1csc(C(=O)Nc2ccc(-n3nc(C(F)(F)F)cc3C(F)(F)F)cc2)c1Cl"
-- reply 57

----------
Test system: Human peripheral blood mononuclear cells
Experiment: Human Concanavalin-A Proliferation Assay (Con HU Assay)
Type: cell-based
Conditions: Homo sapiens, PBMC, concanavalin-A stimulated human PBMC, tritiated thymidine
# pIC50 listing for each entry below
The meaning of pIC50 here: minus log10 of the concentration in molar units.

[[record]]
molecule = "N#Cc1cccc(/C=C/c2ccc(-n3nc(C(F)(F)F)cc3C(F)(F)F)cc2)c1"
result_value = 5.21

[[record]]
molecule = "O=C(O)c1ccc(C(=O)Nc2ccc(-n3nc(C(F)(F)F)cc3C(F)(F)F)cc2)cc1"
result_value = 5.17

[[record]]
molecule = "COc1cc(C(F)(F)F)nn1-c1ccc(NC(=O)c2ccncc2F)cc1"
result_value = 6.73

[[record]]
molecule = "O=C(Nc1ccc(-n2nc(C(F)(F)F)cc2C(F)(F)F)cc1)c1ccc(C(F)(F)F)cc1"
result_value = 5.91

[[record]]
molecule = "Cc1nnsc1C(=O)Nc1ccc(-n2nc(C(F)(F)F)cc2C#N)cc1"
result_value = 6.45


-- ask Hello, I am looking for reported pIC50 with Human peripheral blood mononuclear cells for "COc1cncc(Cl)c1C(=O)Nc1ccc(-n2nc(C(F)(F)F)cc2C(F)(F)F)cc1" . Could you help?
-- reply 6.39

-- ask Hello, I am looking for reported pIC50 with Human peripheral blood mononuclear cells for "Cc1nnsc1C(=O)Nc1ccc(-n2nc(-c3ccoc3)cc2Cl)cc1" . Could you help?
-- reply 6.55

-- ask Hello, I am looking for reported pIC50 with Human peripheral blood mononuclear cells for CC1CC1C(=O)Nc1ccc(-n2nc(C(F)(F)F)cc2C(F)(F)F)cc1 (centres unmarked) . Could you help?
-- reply 6.39

-- ask Hello, I am looking for reported pIC50 with Human peripheral blood mononuclear cells for "Cc1nc(C)c(-c2cc(C(F)(F)F)n(-c3ccc(NC(=O)c4ccncc4F)cc3)n2)s1" . Could you help?
-- reply 6.60

-- ask Hello, I am looking for reported pIC50 with Human peripheral blood mononuclear cells for "O=C(Nc1ccc(-n2nc(C(F)(F)F)cc2C(F)(F)F)cc1)c1nc(Cl)ccc1Cl" . Could you help?
-- reply 6.55

----------
metric name: melting point

Here are 3 compounds together with their reported answers.
[[record]]
mol = "O=C(Nc1ccc(-n2nc(C(F)(F)F)cc2C(F)(F)F)cc1)c1ccc(F)c(Cl)c1"
metric_name = "melting point"
result_value = "138 to 139 °C"

[[record]]
mol = "CCOC(=O)c1cccc(NC(=O)Nc2ccc(-n3nc(C(F)(F)F)cc3C(F)(F)F)cc2)c1"
metric_name = "melting point"
result_value = "211 to 212 °C"

[[record]]
mol = "CC(=O)c1ccc(NC(=O)Nc2ccc(-n3nc(C(F)(F)F)cc3C(F)(F)F)cc2)cc1"
metric_name = "melting point"
result_value = "230 to 231 °C"


Next, consider the following compound.
-- ask What value of melting point has been recorded for this entry: "Cn1cc(C(=O)Nc2ccc(-n3nc(C(F)(F)F)cc3C(F)(F)F)cc2)cn1"
-- reply 211 to 212 °C

----------
# melting point listing for each entry below

[[record]]
compound = "Cc1cc(-n2nc(C(F)(F)F)cc2C(F)(F)F)ccc1NC(=O)c1snnc1C [Example 279]"
result_value = "196 to 197 °C"

[[record]]
compound = "COC(C(=O)Nc1ccc(-n2nc(C(F)(F)F)cc2C(F)(F)F)cc1)(c1ccccc1)C(F)(F)F (stereo not shown) [Example 55]"
result_value = "127 to 129 °C"

[[record]]
compound = "CCCCCCOc1ccc(C(=O)Nc2ccc(-n3nc(C(F)(F)F)cc3C(F)(F)F)cc2)cc1 [Example 74]"
result_value = "153 to 155 °C"

[[record]]
compound = "Cc1noc(C)c1C(=O)Nc1ccc(-n2nc(C(F)(F)F)cc2C(F)(F)F)cc1 [Example 266]"
result_value = "179 to 180 °C"

[[record]]
compound = "O=C(Nc1ccc(-n2nc(C(F)(F)F)cc2C(F)(F)F)nc1)c1ccccc1Cl [Example 260]"
result_value = "156 to 159 °C"

[[record]]
compound = "Cc1c(NC(=O)Nc2ccc(-n3nc(C(F)(F)F)cc3C(F)(F)F)cc2)cccc1[N+](=O)[O-] [Example 40]"
result_value = "235 to 236 °C"


Next, consider the following compound.
-- ask What value of melting point has been recorded for this entry: N#Cc1ccc(NC(=O)c2ccc(-n3nc(C(F)(F)F)cc3C(F)(F)F)cc2)cc1 [Example 193]
-- reply 192 to 193 °C
